The reported measurements were obtained from BigSolDB 2.1.

details: in n-butanol, 298.15 K
quantity-name: solubility (mole fraction)
Answer using only a numeral; do not append any unit.

# solubility (mole fraction) (compound: "O=C(c1ccccc1)c1ccc(Cl)cc1" ) is 0.0436

---

conditions: in acetonitrile, 313.15 K
quantity-name: solubility (mole fraction)
Answer using only a numeral; do not append any unit.

# solubility (mole fraction) (compound: "O=C(c1ccccc1)c1ccc(Cl)cc1" ) is 0.19

---

conditions: in methanol, 288.15 K
quantity-name: solubility (mole fraction)
Answer using only a numeral; do not append any unit.

# solubility (mole fraction) (compound: "O=C(c1ccccc1)c1ccc(Cl)cc1" ) is 0.00802

---

conditions: in methanol, 323.15 K
quantity-name: solubility (mole fraction)

# solubility (mole fraction) (compound: "O=C(c1ccccc1)c1ccc(Cl)cc1" ) is 0.0594
